test system: CCRIS mutagenicity, Ames/micronucleus/aberration tests; assay: CCRIS mutagenicity studies; conditions: Test System: AMES SALMONELLA TYPHIMURIUM; Strain/Indicator: TA97; Metabolic Activation: RAT, LIVER, S-9, AROCLOR 1254 (10%); Method: PREINCUBATION
Active and inactive are the calls of the source. How the calls were made is not given here.
Respond using exactly one of the listed classes: YES (active), NO (inactive)

Per the records of this test, what outcome belongs to `c1ccc(CSCc2ccccc2)cc1` ?
NO

Give the logged outcome of this assay for the following molecule: `N#CCc1ccccc1[N+](=O)[O-]`
NO

Short answer needed: outcome of this test for `CC(=O)Nc1ccc(N)cc1` ?
NO

Entry `c1cc2c3c(cccc3c1)CC2` : call = ?
NO

Hi team, can someone confirm the assay call for `O=C(NO)c1ccccc1` ?
YES

----------
tested on: CCRIS mutagenicity, Ames/micronucleus/aberration tests; assay: CCRIS mutagenicity studies; conditions: Test System: AMES SALMONELLA TYPHIMURIUM; Strain/Indicator: TA100; Metabolic Activation: NONE; Method: PREINCUBATION
Activity calls are given as the source filed them. The rule behind the calls is not given here.
// one of yes for active, no for inactive, no free text

What was the test verdict on `Cc1c(O)cc([N+](=O)[O-])cc1[N+](=O)[O-]` ?
no

// return assay outcome for `Cc1cccc(Br)c1`
no

So what was the verdict on `CC(C)(C)c1ccc(O)c(O)c1` in this test?
no

Which outcome was entered for the compound `CC(C)c1ccc2oc3nc(N)c(C(=O)O)cc3c(=O)c2c1` in this test?
no

For `CCOC(=O)[C@H]1O[C@@H]1C(=O)N[C@@H](CC(C)C)C(=O)NCCC(C)C` , what call appears in the results of this test?
no

Which outcome was entered for the compound `O=[N+]([O-])c1ccc(Oc2c(Cl)cc(Cl)cc2Cl)cc1` in this test?
no

Dear all, I need the recorded test outcome for `c1ccc(CSCc2ccccc2)cc1` , thank you.
no

What did the test return for `O=C1OC2(c3ccccc31)c1cc(I)c(O)c(I)c1Oc1c2cc(I)c(O)c1I` ?
no

Assay result, entry `CN(C)CCN(Cc1cccs1)c1ccccn1` — outcome?
no

What outcome does the record of this test show for CCCCCCC(C)(C)C(=O)OCC1CO1 (stereo not given) ?
no

Which outcome was entered for the compound `O=[N+]([O-])c1ccc(-[n+]2nc(-c3ccccc3)nn2-c2ccc(I)cc2)cc1` in this test?
no

Give the logged outcome of this assay for the following compound: `C=C[C@H]1CN2CC[C@H]1C[C@H]2[C@H](OC(=O)OCC)c1ccnc2ccc(OC)cc12`
no

Identify the outcome logged in this assay for the compound shown: `CC1=NN(c2ccccc2)C(=O)C1`
no

Each compound tested received a call. Report the one for `ClC1=C(Cl)[C@]2(Cl)[C@H]3[C@H]([C@@H]4C=C[C@H]3C4)[C@@]1(Cl)C2(Cl)Cl` .
no

What was the test verdict on OCC12OOC1(CO)c1ccccc1O2 (stereo not given) ?
no

// return assay outcome for `[Cl][V]([Cl])[Cl]`
no

Returns: the outcome recorded for `OCC(CO)(CO)CO` in this assay.
no

Assay result, entry `NNc1nncc2ccncc12` — outcome?
yes

Called result for `O=C(Cl)c1ccccc1F`
no

What did the test return for `[CH3][Pb]([CH3])([CH3])[CH3]` ?
no

# outcome recorded in this test, key = `O=c1ccc(=O)[nH][nH]1`
no

Look up the recorded call for `O=C(O)/C=C/C=C/C(=O)O` in this test.
no

Hi team, can someone confirm the assay call for `CC(C)CC(=O)CC(C)C` ?
no

What outcome does the record of this test show for `O[C@H]1[C@H]2O[C@H]2c2c(ccc3cc4ccc5ccccc5c4nc23)[C@@H]1O` ?
yes

Name the outcome recorded for `C=CCc1ccc(O)c(OC)c1` in the assay.
no

Outcome logged for `Cc1cc(-c2ccc(N=Nc3cc(S(=O)(=O)O)c4ccccc4c3N)c(C)c2)ccc1N=Nc1cc(S(=O)(=O)O)c2ccccc2c1N` in this assay:
no

Tell me the recorded outcome of this test for `CC(=O)[C@]1(C)O[C@@]12C=Cc1ccccc1C2=O` .
no

I would be grateful if you could indicate the recorded call for `CCC#N` .
no

Recorded test call requested for `C[C@@H]1C[C@@H]([C@H](O)CC2CC(=O)NC(=O)C2)C(=O)[C@@H](C)C1`
no

Short answer needed: outcome of this test for `CCOc1ccc(N)cc1` ?
no

----------
system: CCRIS mutagenicity, Ames/micronucleus/aberration tests; assay: CCRIS mutagenicity studies; details: Test System: AMES SALMONELLA TYPHIMURIUM; Strain/Indicator: TA98; Metabolic Activation: RAT LIVER S-9, PHENOBARBITAL AND BETA-NAPHTHOFLAVONE; Method: PREINCUBATION
Active and inactive are the calls of the source. The rule behind the calls is not given here.
The reply should be one of these categories: yes (1) (active), no (0) (inactive)

Per the assay record, what outcome was assigned to `Nc1ccccc1N` ?
yes (1)

Dear colleague, could you share the recorded outcome for `CCCCCCCCCCCCCC(=O)O` when you have a moment?
no (0)

Short answer needed: outcome of this test for `[Cl][V]([Cl])[Cl]` ?
no (0)

Name the outcome recorded for `Cc1ccc(N)cc1C` in the assay.
no (0)

Record lookup: outcome of this test for `CCNCCN` ?
no (0)

Which outcome was entered for the compound `CCC(=O)O` in this test?
no (0)

----------
System: CCRIS mutagenicity, Ames/micronucleus/aberration tests
Assay: CCRIS mutagenicity studies
Settings: Test System: AMES SALMONELLA TYPHIMURIUM; Strain/Indicator: TA100; Metabolic Activation: NONE; Method: PREINCUBATION
Excerpt: The CCRIS database contains chemical records with carcinogenicity, mutagenicity, tumor promotion, and tumor inhibition test results. It was developed by the National Cancer Institute (NCI). Data are derived from studies cited in primary journals, current awareness tools, NCI reports, and other sources. Test results have been reviewed by experts in carcinogenesis and mutagenesis. CCRIS provides historical information from the years 1985 - 2011. It is no longer updated. […]
Active and inactive are the calls of the source. The rule behind the calls is not given here.
Reply using exactly one outcome from active, inactive

How was `[Be]=[O]` classified in this test?
inactive

Tell me the assay call for ClCC(Cl)COCC(Cl)CCl (centres undefined) please.
inactive

Given `Oc1cc(O)cc(O)c1` , state the outcome it received in this test.
inactive

Hey, what did the test say about `Nc1ccc(Oc2ccc([N+](=O)[O-])cc2)cc1` ?
active

----------
test system: CCRIS mutagenicity, Ames/micronucleus/aberration tests; experiment: CCRIS mutagenicity studies; conditions: Test System: AMES SALMONELLA TYPHIMURIUM; Strain/Indicator: TA1538; Metabolic Activation: NONE; Method: STANDARD PLATE
Activity calls are given as the source filed them. How the calls were made is not given here.
measured_parameter: mutagenic call

Some solved cases for reference:
compound	mutagenic call
CC(=O)c1ccc(S(=O)(=O)NC(=O)NC2CCCCC2)cc1	inactive; negative
Cc1ccc2c(c1[N+](=O)[O-])C(=O)c1ccccc1C2=O	active; positive
CCCCCCCC/C=C\CCCCCCCCN (tested in a mixture with another compound)	inactive; negative
COc1cc(-c2oc3cc(O)cc(O)c3c(=O)c2O)ccc1O	inactive; negative
CC(C)(C)CBr	inactive; negative

Quick note, mutagenic call for `CCCCOc1ccc2nc3cc(Cl)ccc3c(NCCCN(CC)CCCl)c2n1` landed at active; positive

Measured mutagenic call of `O=[N+]([O-])c1cc(C(F)(F)F)cc([N+](=O)[O-])c1Cl` : inactive; negative

Record `OO` , field mutagenic call: inactive; negative

The reported mutagenic call of the compound `CNC[C@H](O)[C@@H](O)[C@H](O)[C@H](O)CO.CNC[C@H](O)[C@@H](O)[C@H](O)[C@H](O)CO.O=C([O-])CN(CCN(CC(=O)[O-])CC(=O)[O-])CCN(CC(=O)[O-])[C@H](COCc1ccccc1)C(=O)[O-].[Gd+3].[H+].[H+]` was inactive; negative

Short answer for `CC(=O)Nc1cc2c(cc1[N+](=O)[O-])[nH]c1ccccc12` : mutagenic call was active; positive

Looking up `COc1ccc(-c2coc3cc(O)cc(O)c3c2=O)cc1` , I found its mutagenic call recorded as inactive; negative

`Cc1ccc2c(c1Nc1ccccc1)C(=O)c1ccccc1C2=O` has a reported mutagenic call of inactive; negative

Kindly note the recorded mutagenic call for `CCc1cccc(CC)c1N(COC)C(=O)CCl` , which is active; positive

----------
system: CCRIS mutagenicity, Ames/micronucleus/aberration tests; test: CCRIS mutagenicity studies; conditions: Test System: AMES SALMONELLA TYPHIMURIUM; Strain/Indicator: TA1537; Metabolic Activation: RAT, LIVER, S-9, AROCLOR 1254; Method: STANDARD PLATE
Activity calls are given as the source filed them. No rule for the calls is given here.
Response enum: 1.0 = active, 0.0 = inactive

Returns: the outcome recorded for `O=C(O)c1ccccn1` in this assay.
0.0

What classification did `C=CC(=O)OCC(CC)(COC(=O)C=C)COC(=O)C=C` end up with in this test?
0.0

How did this test come out for `COC(=O)C(C)(C)Oc1ccc(-c2ccc(Cl)cc2)cc1` ?
0.0

Called result for `c1cc2ccc3ccc4ccc5cccc6c(c1)c2c3c4c56`
1.0

Outcome? `C[Si](C)(C)O[Si](C)(C)O[Si](C)(C)C`
0.0

Fill in: this test's call for `C/C=C/c1ccc(O)c(OC)c1` is ___
0.0

What is the recorded call for this molecule in the test? `O=C1c2ccc(O)c(O)c2C(=O)c2c(O)ccc(O)c21`
1.0

Please let me know the test result on file for `Cc1c2ccccc2c(C)c2c1ccc1ccccc12` .
1.0

Would you mind telling me which call this test gave `CN(C)CCC=C1c2ccccc2CCc2ccccc21` ?
0.0

Just for reference, PubChem BioAssay AID1259407 is where these values come from.
